B1: TRAF3IP2 (parent)
chain: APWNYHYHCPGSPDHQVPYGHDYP

- Variants of: B1
- ASSAY_DETAILS: protein stability index of a GFP-peptide fusion (GPS, HEK-293T) (PSI 1-6); higher = more stable;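 note: lentivirally expressed fusions sorted by FACS into six bins by GFP to DsRed ratio, PSI derived from sequencing read proportions per bin multiplied by bin number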
- CONDITION: c terminus: a fixed tail appended
Class Yes: protein stability index at least 2. Class No: protein stability index below 2.

>>> qualitative_label("APWNYHYHCPGSPDHQVPYGHDYW [P24W]")
"No"
>>> qualitative_label("APWNYHYHCPGSPDHQVPCGHDYP [Y19C]")
"No"
>>> qualitative_label("APWNYHYNCPGSPDHQVPYGHDYP [H8N]")
"Yes"
>>> qualitative_label("APWNYHYHCPGSPDHQSPYGHDYP [V17S]")
"Yes"
>>> qualitative_label("APWNYHYHCPGSPDHQVPYGHDYK [P24K]")
"Yes"
>>> qualitative_label("APWNYVYHCPGSPDHQVPYGHDYP [H6V]")
"No"
>>> qualitative_label("APWNIHYHCPGSPDHQVPYGHDYP [Y5I]")
"Yes"
>>> qualitative_label("APWNYHYHCPGSPLHQVPYGHDYP [D14L]")
"Yes"
>>> qualitative_label("APWNYHYHCPGSPDHQVPLGHDYP [Y19L]")
"Yes"
>>> qualitative_label("APWNYHYHCPGSPDHQVPYYHDYP [G20Y]")
"Yes"
>>> qualitative_label("APWNYHYHSPGSPDHQVPYGHDYP [C9S]")
"Yes"
>>> qualitative_label("APWNYHYHAPGSPDHQVPYGHDYP [C9A]")
"Yes"
>>> qualitative_label("APWNYHNHCPGSPDHQVPYGHDYP [Y7N]")
"Yes"
>>> qualitative_label("APTNYHYHCPGSPDHQVPYGHDYP [W3T]")
"Yes"
>>> qualitative_label("APWNYHQHCPGSPDHQVPYGHDYP [Y7Q]")
"Yes"
>>> qualitative_label("APWNYHYKCPGSPDHQVPYGHDYP [H8K]")
"No"
>>> qualitative_label("APWNYHYHCPGSPDHQVPGGHDYP [Y19G]")
"Yes"
>>> qualitative_label("APWNYHYMCPGSPDHQVPYGHDYP [H8M]")
"No"
>>> qualitative_label("APWNYHYSCPGSPDHQVPYGHDYP [H8S]")
"Yes"
>>> qualitative_label("APWNYHYECPGSPDHQVPYGHDYP [H8E]")
"Yes"
>>> qualitative_label("APWNYHYHCWGSPDHQVPYGHDYP [P10W]")
"No"
